- Test system: M14 melanoma
- PROTOCOL DETAILS: NCI tumour cell line growth inhibition, 48 h
MEASUREMENT KIND: TGI

Query the reported TGI for M14 melanoma; item: CCOC(=O)NNC(=O)C1CSC(c2ccccc2)N1C(C)=O (stereo not drawn) > 100 µM

Request: CC(C)=CCCC(C)c1ccc(C)c2c1OCN(CC1CCNCC1)C2 (stereo not drawn) 24.5 µM

Request: CC(=O)O[C@@H]1CC[C@@]2(C)C(CC[C@H]3[C@@H]4CC[C@H]([C@H](C)CCc5nc6ccc(C)cc6[nH]5)[C@@]4(C)CC[C@@H]32)C1 (stereo partly drawn) > 100 µM

---

- Test system: CAKI-1 renal
- PROTOCOL DETAILS: NCI tumour cell line growth inhibition, 48 h
MEASUREMENT KIND: TGI

Query the reported TGI for CAKI-1 renal; item: O=[n+]1c2ccccc2n([O-])c2ccccc21 > 100 µM

Request: COc1c2nc(CCl)[nH]c(=O)c2c(OC)c2nc(CCl)[nH]c(=O)c12 > 100 µM

Request: O/N=C(\c1ccccc1)N1CCCCC1 > 100 µM

Request: CC(=O)N1C(=O)CC2(N=C(C)CC2=O)c2ccccc21 (stereo unspecified) > 10 µM

Request: Cc1cc(C)nc(NS(=O)(=O)c2ccc(NNc3c4ccccc4nc4c(C(=O)Nc5ccc(S(=O)(=O)Nc6ncccn6)cc5)cccc34)cc2)n1 > 100 µM

Request: COc1ccc(Nc2nnc(CCCCCCCCc3nnc(Nc4ccc(OC)cc4)o3)o2)cc1 > 100 µM

---

Can you tell me TGI for the items I'm about to list?
- System: HT29 colon
- PROTOCOL DETAILS: NCI tumour cell line growth inhibition, 48 h

Dear colleague, I am looking for the recorded TGI of the following compound: COc1ccccc1N1C(=O)/C(=C/c2ccc(N(CCC#N)CCC#N)cc2C)N=C1c1cc([N+](=O)[O-])ccc1Cl > 100 µM

Request: CCOC(=O)Nc1nc2ccc(Cn3cccc3)cc2[nH]1 > 56.3 µM

Request: CC(=O)N1C(=O)CC2(N=C(C)CC2=O)c2ccccc21 (stereo not drawn) > 10 µM
